- procedure-summary: Cmax in dog (PO dose)
- measurement-context: in vivo
endpoint-label: Cmax (µM)
State the answer as a number, implicitly in µM.

Please report the recorded Cmax for O=C1NCCN(c2ccccc2)N1 . 132

* * *

- procedure-summary: T1/2 in cynomolgus monkey (PO dose)
- Format: ADME, organism-based, Macaca fascicularis
- measurement-context: in vivo
endpoint-label: half-life (h)
State the answer as a number, implicitly in h.

Please report the recorded half-life for O=C1NCCN(c2ccccc2)N1 . 1

* * *

- target-desc: UniProt P12527
- Sequence (P12527 whole entry): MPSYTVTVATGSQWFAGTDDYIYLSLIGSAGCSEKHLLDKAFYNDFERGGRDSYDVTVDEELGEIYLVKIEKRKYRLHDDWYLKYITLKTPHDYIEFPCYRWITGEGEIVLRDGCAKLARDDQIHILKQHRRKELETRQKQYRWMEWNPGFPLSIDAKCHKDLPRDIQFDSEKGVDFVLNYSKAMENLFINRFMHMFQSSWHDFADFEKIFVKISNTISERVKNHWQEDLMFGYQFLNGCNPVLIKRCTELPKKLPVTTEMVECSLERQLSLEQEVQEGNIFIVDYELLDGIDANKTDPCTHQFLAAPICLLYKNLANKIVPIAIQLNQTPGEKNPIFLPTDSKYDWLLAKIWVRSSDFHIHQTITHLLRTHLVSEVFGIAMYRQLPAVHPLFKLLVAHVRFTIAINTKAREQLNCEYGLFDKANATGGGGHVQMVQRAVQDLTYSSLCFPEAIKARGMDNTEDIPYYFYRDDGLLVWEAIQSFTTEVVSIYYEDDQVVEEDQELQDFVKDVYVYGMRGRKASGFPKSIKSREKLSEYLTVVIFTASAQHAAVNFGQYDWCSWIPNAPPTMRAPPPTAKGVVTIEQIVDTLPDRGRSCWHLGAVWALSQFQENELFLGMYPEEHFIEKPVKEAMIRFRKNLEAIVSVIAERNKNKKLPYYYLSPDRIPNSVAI
- procedure-summary: In vitro 5-lipoxygenase inhibitory activity against calcium ionophore (A23187) induced LTB4 formation in rat polymorphonuclear leukocytes
- Type: functional, cell-based
endpoint-label: IC50

Please report the recorded IC50 for O=C1NCCN(c2ccccc2)N1 . 4.6 µM
